molecular target: recombinant human FGFR1 catalytic domain (amino acids 308-731) (Homo sapiens (Human), UniProt P11362); experiment: FGFR1 enzyme activity assay (LanthaScreen TR-FRET); conditions: 20 min incubation at 22° C., average of multiple determinations if made, read-out: FGFR1 Enz FRET IC50
Sequence (P11362 other isoform, or with tags, fused parts or gaps): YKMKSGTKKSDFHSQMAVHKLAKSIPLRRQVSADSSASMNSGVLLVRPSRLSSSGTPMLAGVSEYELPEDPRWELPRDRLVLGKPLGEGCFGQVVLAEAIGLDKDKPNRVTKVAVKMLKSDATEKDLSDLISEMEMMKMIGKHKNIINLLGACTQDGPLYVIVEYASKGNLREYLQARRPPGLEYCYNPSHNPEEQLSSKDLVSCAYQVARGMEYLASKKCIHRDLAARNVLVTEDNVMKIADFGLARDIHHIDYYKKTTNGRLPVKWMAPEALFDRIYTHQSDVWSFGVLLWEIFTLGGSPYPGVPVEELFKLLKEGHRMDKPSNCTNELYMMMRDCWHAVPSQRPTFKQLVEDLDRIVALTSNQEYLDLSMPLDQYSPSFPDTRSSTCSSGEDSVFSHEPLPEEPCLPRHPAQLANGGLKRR
Endpoint label: IC50 (nM)
Kindly provide the numeric value in nM only, without the unit symbol.

What value of measured IC50 is listed for C=CC(=O)N1CC(C(=O)N2CCC3(C2)CN(c2ccc(-c4cc(OC)c5c(C#N)cnn5c4)cn2)C3)C1 [Example 103] ?
49

// IC50 lookup, key: C=CC(=O)Nc1cccc(C(=O)N2CCC(n3cc(-c4cc(OC)c5c(C#N)cnn5c4)cn3)CC2)c1 [Example 22]
21

Given the compound C=CC(=O)N1CC(C(=O)N2CC3CC(C2)N3c2ccc(-c3cc(OC)c4c(C#N)cnn4c3)cn2)C1 [Example 105] , what is its reported IC50?
193

Can you look up the measured IC50 of COc1cc(-c2cnn(C3CCN(C(=O)C4CN(C(=O)/C=C/CBr)C4)CC3)c2)cn2ncc(C#N)c12 [Example 180] for me?
19

Return reported IC50; argument: C=CC(=O)N1CC(C(=O)N2CCC(n3cc(-c4cc(OC)c5c(C#N)cnn5c4)c(C)n3)CC2)C1 [Example 94]
73

Would you mind telling me what IC50 value was observed for C=CC(=O)N(C)c1ccc(CN2CCC(n3cc(-c4cc(OC)c5c(C#N)cnn5c4)cn3)CC2)cc1 [Example 10] ?
34

Record request: IC50 value, item C=CC(=O)N1CCC(F)(C(=O)N2CCC(n3cc(-c4cc(OC)c5c(C#N)cnn5c4)cn3)CC2)C1 (centres unmarked) [Example 30]
9

Consider the compound shown here: C=CC(=O)N[C@H]1C[C@@H](C(=O)N2CC(n3cc(-c4cc(OC)c5c(C#N)cnn5c4)cn3)C2)C1 [Example 80] What is its recorded IC50?
26

Data request, read-out IC50, for C=CC(=O)N1CC(C(=O)N2CCN(c3ccc(-c4cc(OC)c5c(C#N)cnn5c4)cc3)CC2)C1 [Example 100]
9

Need IC50, item C=CC(=O)N1CC(S(=O)(=O)N2CCC(n3cc(-c4cc(OC)c5c(C#N)cnn5c4)cn3)CC2)C1 [Example 134]
5

Name the recorded IC50 for COC/C=C/C(=O)N1CC(F)(C(=O)N2CCC(n3ncc(-c4cc(OC)c5c(C#N)cnn5c4)c3C)CC2)C1 [Example 154] .
335

Returns the measured IC50 for the input compound. Input: C=CC(=O)N1CC(C(=O)N2CCN(c3ncc(-c4cc(OC)c5c(C#N)cnn5c4)cn3)CC2)C1 [Example 133]
119

Form field: reported IC50 of C=CS(=O)(=O)N1CCC2(CC1)CC(C(=O)N1CCC(n3cc(-c4cc(OC)c5c(C#N)cnn5c4)cn3)CC1)C2 [Example 195]
19

Item under review: C=CC(=O)N1CC[C@H](C(=O)N2CC[C@@H](n3cc(-c4cc(OC)c5c(C#N)cnn5c4)cn3)C2)C1 [Example 57] . Reported IC50?
34

May I ask what IC50 has been recorded for C=CC(=O)N1CC(C#N)(C(=O)N2CCC(n3cc(-c4cc(OC)c5c(C#N)cnn5c4)cn3)CC2)C1 [Example 39] ?
11

Can you look up the measured IC50 of C=CC(=O)N1CCN(c2ccc(-c3cc(OC)c4c(C#N)cnn4c3)cc2)CC1 [Example 99] for me?
13

Request the reported IC50 associated with C=CC(=O)N1C[C@H]2C[C@@H]1CN2C(=O)N1CCC(n2cc(-c3cc(OC)c4c(C#N)cnn4c3)cn2)CC1 [Example 5]
25

I would be grateful if you could share the reported IC50 for C=CC(=O)N1CC(O)(C(=O)N2CCC(n3ncc(-c4cc(OC)c5c(Cl)cnn5c4)c3C)CC2)C1 [Example 172] .
856

Entry C=CC(=O)Nc1ccc(C(=O)N2CCC(n3cc(-c4cc(OC)c5c(C#N)cnn5c4)cn3)CC2)cc1 [Example 177] has what IC50?
11

# lookup: IC50 of C=CC(=O)N1CC(CC)(C(=O)N2CCC(n3cc(-c4cc(OC)c5c(C#N)cnn5c4)cn3)CC2)C1 [Example 40]
9

# get_value(readout='IC50', item= C=CC(=O)N1CCC[C@H](C(=O)N2CCC(n3cc(-c4cc(OC)c5c(C#N)cnn5c4)cn3)CC2)C1 [Example 16] )
20

Item C=CS(=O)(=O)Nc1cccc(C(=O)N2CCC(n3cc(-c4cc(OC)c5c(C#N)cnn5c4)cn3)CC2)c1 [Example 188] has what recorded IC50?
11

Suppose we examine the compound C=CC(=O)N1CC(CN2CC(n3cc(-c4cc(OC)c5c(C#N)cnn5c4)cn3)C2)C1 [Example 81] ; what IC50 value has been reported?
31

Item under review: C=CC(=O)Nc1ccc(C(=O)N2CC[C@H](n3cc(-c4cc(OC)c5c(C#N)cnn5c4)cn3)C2)cc1C [Example 70] . Reported IC50?
16

Suppose we examine the compound C=CC(=O)N[C@H]1C[C@H](C(=O)N2CC[C@@H](n3cc(-c4cc(OC)c5c(C#N)cnn5c4)cn3)C2)C1 [Example 60] ; what IC50 value has been reported?
31

Which value of IC50 has been reported for COc1cc(-c2cnn(C3CCN(C(=O)C4CN(C(=O)/C=C/CN(C)C)C4)CC3)c2C)cn2ncc(C#N)c12 [Example 152] in the records?
99

Fill blank: measured IC50 of the compound C=CC(=O)N1CCC[C@@H](C(=O)N2CC[C@H](n3cc(-c4cc(OC)c5c(C#N)cnn5c4)cn3)C2)C1 [Example 64] is ____.
23

// query IC50 value for entry C=CC(=O)N1CC(C(=O)N2CCN(c3ncc(-c4cc(OC)c5c(C#N)cnn5c4)cc3C)CC2)C1 [Example 113]
107

Please report the recorded IC50 for C=CC(=O)N1CCC(C(=O)N2CCC(n3cc(-c4cc(OC)c5c(C#N)cnn5c4)cn3)CC2)C(F)(F)C1 (centres unmarked) [Example 15] .
7

###

Could you please report measured IC50 for the items listed next?
# include the unit after the value

Report IC50 for C=CC(=O)N1CC(C(=O)N2CC[C@@H](n3cc(-c4cc(OC)c5c(C#N)cnn5c4)cn3)C2)C1 tested on UniProt P22607.
16 nM

Please provide the recorded IC50 for C=CC(=O)N1CC(F)(C(=O)N2CCC(n3ncc(-c4cc(OC)c5c(C#N)cnn5c4)c3C)CC2)C1 , tested on UniProt P22607.
3 nM

What measured IC50 is associated with C=CC(=O)N1CC(C(=O)N2C3CC2CN(c2ccc(-c4cc(OC)c5c(C#N)cnn5c4)cn2)C3)C1 on UniProt P22607?
14 nM

Fill in the recorded IC50 for this compound, with UniProt P22607 as test system: C=CC(=O)N1CC[C@@H](C(=O)N2CC[C@H](n3cc(-c4cc(OC)c5c(C#N)cnn5c4)cn3)C2)C1
7 nM

State its IC50 on UniProt P22607: COc1cc(-c2cnn(C3CCN(C(=O)C4(F)CN(C(=O)/C=C/CN(C)C)C4)CC3)c2C)cn2ncc(Cl)c12
5 nM

Find the measured IC50: item C=CC(=O)N1CCC(C(=O)N2CC[C@H](n3cc(-c4cc(OC)c5c(C#N)cnn5c4)cn3)C2)CC1 , target or system UniProt P22607.
64 nM

Requested read-out IC50, target or system UniProt P22607, entry C=CC(=O)Nc1cccc(C(=O)N2CCC[C@@H](n3cc(-c4cc(OC)c5c(C#N)cnn5c4)cn3)C2)c1
69 nM

###

target: FGFR3 (SEQ ID NO: 5, amino acids 449-759) (Homo sapiens (Human)); assay: LC/MS FGFR3 kobs assay (covalent protein modification); assay type: binding; settings: 500 nM FGFR3, 3 μM compound
Sequence (P22607 449-759): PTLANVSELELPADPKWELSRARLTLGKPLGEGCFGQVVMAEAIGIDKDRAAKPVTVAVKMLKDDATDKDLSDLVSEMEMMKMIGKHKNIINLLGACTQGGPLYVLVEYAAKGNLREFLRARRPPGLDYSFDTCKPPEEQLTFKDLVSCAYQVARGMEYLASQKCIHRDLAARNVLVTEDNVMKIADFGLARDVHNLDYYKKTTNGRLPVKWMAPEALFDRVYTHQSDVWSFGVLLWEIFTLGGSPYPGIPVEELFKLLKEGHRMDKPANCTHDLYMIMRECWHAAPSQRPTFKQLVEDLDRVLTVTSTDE
Using FGFR3 Enz kobs as the sorting value, the categories are 0: < 0.003 min⁻¹; 1: ≥ 0.003 min⁻¹ and < 0.02 min⁻¹; 2: ≥ 0.02 min⁻¹

Quick check: band for C=CC(=O)N1CC[C@H](C(=O)N2CC(n3cc(-c4cc(OC)c5c(C#N)cnn5c4)cn3)C2)C1 [Example 76]
1

Bin this entry: C=CC(=O)N1CC(F)(C(=O)N2CCN(c3cc(C)c(-c4cc(OC)c5c(C#N)cnn5c4)cn3)CC2)C1 [Example 114]
2

Sort CC#CC(=O)N1CC(C(=O)N2CCC(n3cc(-c4cc(OC)c5c(C#N)cnn5c4)cn3)CC2)C1 [Example 139] into one of the categories.
0

Into which bin does this compound go? C=CC(=O)N[C@H]1CC[C@H](C(=O)N2CC[C@@H](n3cc(-c4cc(OC)c5c(C#N)cnn5c4)cn3)C2)CC1 [Example 54]
0

Pick a category. Item: C=CC(=O)N1CC[C@@H](C(=O)N2CC[C@@H](n3cc(-c4cc(OC)c5c(C#N)cnn5c4)cn3)C2)C1 [Example 58]
0

Which bin, given its FGFR3 Enz kobs, does C=CC(=O)N1CCC(C(=O)N2CC[C@H](n3cc(-c4cc(OC)c5c(C#N)cnn5c4)cn3)C2)CC1 [Example 62] occupy?
0

Kindly identify the class of COc1cc(-c2cnn(C3CCN(C(=O)C4CN(C(=O)/C=C/CBr)C4)CC3)c2)cn2ncc(C#N)c12 [Example 180] .
2

Looking at C=CC(=O)Nc1ccc(C(=O)N2CCC[C@@H](n3cc(-c4cc(OC)c5c(C#N)cnn5c4)cn3)C2)cc1 [Example 23] , which class would you pick?
1

Could you tell me which band C=CC(=O)N1CCC(C(=O)N2CCC(n3cc(-c4cc(OC)c5c(C#N)cnn5c4)cn3)CC2)C(F)(F)C1 (centres unmarked) [Example 15] belongs to?
1

Which class is correct for the following compound? C=CC(=O)N1CCC(C(=O)N2CCN(c3ccc(-c4cc(OC)c5c(C#N)cnn5c4)cn3)CC2)CC1 [Example 109]
1

Consider C=CS(=O)(=O)N1CC[C@@H](C(=O)N2CCC(n3cc(-c4cc(OC)c5c(C#N)cnn5c4)cn3)CC2)C1 [Example 185] . To which FGFR3 Enz kobs class does it belong?
2

Determine which band this compound sits in: COc1cc(-c2cnn(C3CCN(C(=O)C4(F)CN(C(=O)/C=C/CN(C)C)C4)CC3)c2C)cn2ncc(Cl)c12 [Example 170]
2
